- Test system: Plasmodium falciparum
- experimental protocol: GSK_TCMDC: Inhibition of Plasmodium falciparum Dd2 in whole red blood cells, using parasite LDH activity as an index of growth. Test compounds present at 2uM
- Type: functional
I'd appreciate it if you marked entries Y when Inhibition is lower than 70% and N when it is not.

Solved entries:
Incoming: Inhibition strictly < 70% for this compound? O=C(Nc1ccc(OC2CCN(Cc3ccc(F)cc3)C2)c(Cl)c1)c1ccco1.O=C(O)C(F)(F)F (centres undefined)
Outgoing: N

Incoming: Further, for COc1cccc(Cn2ccc3c4c(N)nc(N)nc4ccc32)c1 ?
Outgoing: N

Incoming: And what about the compound COc1cc(C(=O)Nc2ccc(-c3nc4ccccc4[nH]3)cc2)cc(OC)c1OC ?
Outgoing: Y

Incoming: Same for CCOC(=O)c1ccc(-c2cnoc2-c2cc(CC)c(OC)cc2O)o1
Outgoing: N

Incoming: Again, but for COc1ccc(N2CCN(c3nc(Nc4ccc(NC(C)=O)cc4)nc(N4CCCC4)n3)CC2)cc1
Outgoing: Y

Next:
Incoming: For CCC(C)NC(=O)Nc1ccc(-c2cccc(-c3nc4cc(C(F)(F)F)ccc4[nH]3)c2)cc1 (centres undefined) , is the recorded Inhibition below the cut-off of 70%?
Outgoing: Y

Incoming: Same again, this time with O=C(OCc1ccccc1)N1CCc2c([nH]c3ccccc23)C1CCC(F)(F)F (centres undefined)
Outgoing: N

Incoming: Another compound to look at: Cc1ccccc1Cn1c(CN2CCC(C(=O)NC3CC3)CC2)cc2ccccc21
Outgoing: N

* * *

- System: Plasmodium falciparum
- experimental protocol: GSK_TCMDC: Inhibition of Plasmodium falciparum Dd2 in whole red blood cells, using parasite LDH activity as an index of growth. Test compounds present at 2uM
- Format: functional
endpoint name: Inhibition (%)
Numbers only, in %.

Incoming: Given the entry O=C(/C=C/c1ccc(Cl)c(Cl)c1)NCCCCCN1CCC(NC(=O)Nc2ccc(C(F)(F)F)cc2)C1 (centres undefined) , report its measured Inhibition.
Outgoing: 6

Incoming: Further, for O=C(O)C(F)(F)F.c1ccc(-n2ncc(CNCc3ccc(-c4cccc(-c5nc6ccccc6[nH]5)c4)cc3)n2)cc1 ?
Outgoing: 9

Each compound below has a reported value. Please supply its Inhibition.
1. O=C(O[C@@H]1CN[C@H](C#Cc2cc3c(Nc4ccc5c(cnn5Cc5ccccc5)c4)ncnc3s2)C1)N1CCCC1
2. O=C(Nc1ccc(Cl)c(C(F)(F)F)c1)c1ccc(Cl)c([N+](=O)[O-])c1
3. CCCCCCSc1nnc(COc2cccc3ccccc23)n1-c1ccc(OC)cc1
4. CN1CCN(Cc2cccc(-c3ccc4c(Nc5cc(O)c(Cl)cc5F)ccnc4c3)c2)CC1
5. COc1cc(NC(=O)N2CCc3cc(OC)c(OCCN4CCCCC4)cc32)cc(C(F)(F)F)c1.O=C(O)C(=O)O
6. O=[N+]([O-])c1ccc(-c2ccc(C=NNc3nc(Nc4ccccc4)nc(Nc4ccccc4)n3)o2)cc1
7. CCCc1cc(Cc2cnc(N)nc2N)cc(OC)c1OC

Outgoing:
[87, 18, 100, 100, 10, 12, 4]

* * *

- System: HepG2
- experimental protocol: GSK_TCMDC: Percent inhibition of human HepG2 cell line. Test compounds present at 10uM.
- Type: functional
# label = bin(measured Inhibition), where bins are low class (below 2%), middle class (2% to below 10%), high class (10% or more)

Incoming: Using the reported Inhibition, which band applies to COc1cc(CNC[C@@H](O)[C@H](Cc2ccccc2)NC(=O)c2cc(OC(C)C)cc(N3CCCS3(=O)=O)c2)cc(OC)c1.Cl ?
Outgoing: low class

Incoming: Here is the next compound: Cl.NC(=O)Nc1ccc2cn[nH]c2c1
Outgoing: middle class

Incoming: And then CCn1ccc2c(N3CCCCS3(=O)=O)cc(C(=O)N[C@@H](Cc3ccccc3)[C@H](O)CNC3CCCCC3)cc21 , what is it?
Outgoing: low class

Incoming: Moving on to the next compound: COc1ccc(CCNCCCCCCNCCc2ccc(OC)c(OC)c2Cl)c(Cl)c1OC.Cl
Outgoing: high class

Incoming: Let us now turn to COc1ccc2nccc(N(C)CC3(O)CCC(NCc4ccc5c(n4)NC(=O)CS5)CC3)c2n1.Cl (centres undefined)
Outgoing: low class

Continuing:
Incoming: GET /class?item= Cc1nc(C)c(C2CCC(c3ccc(Cl)cc3)CC2)c(O)c1Cl (centres undefined)
Outgoing: high class

Incoming: Follow-up entry: CS(=O)(=O)Nc1ccc(OCCCCCCOc2ccc(NS(C)(=O)=O)cc2)cc1
Outgoing: middle class

* * *

- System: HepG2
- experimental protocol: GSK_TCMDC: Percent inhibition of human HepG2 cell line. Test compounds present at 10uM.
- Assay type: functional
endpoint name: Inhibition (%)
Numbers only, in %.

Incoming: Requested field: Inhibition. Item: Cc1ccc(F)cc1S(=O)(=O)NCC(C)c1ccc(NC(=O)Nc2cccc(F)c2)cc1 (centres undefined)
Outgoing: 20

Incoming: Request: O=C(Cn1c(CCc2cccc(F)c2F)cc(=O)c2ccccc21)N(CCN1CCCC1)Cc1ccc(-c2ccc(C(F)(F)F)cc2)cc1.O=C(O)C(O)C(O)C(=O)O
Outgoing: 89

Incoming: How about this molecule: Cc1cccc(Nc2c(-c3cc(Br)ccc3O)nc3ncccn23)c1
Outgoing: 0

Continue with the next molecule.
Incoming: Form field: reported Inhibition of CCc1ccccc1NC(=O)CN1CCN(c2ncnc3scc(-c4ccc(F)cc4)c23)CC1
Outgoing: 6

* * *

Can you tell me Inhibition for the items I'm about to list?
- Test system: Plasmodium falciparum
- experimental protocol: GSK_TCMDC: Inhibition of Plasmodium falciparum Dd2 in whole red blood cells, using parasite LDH activity as an index of growth. Test compounds present at 2uM
- Format: functional
Answers are plain numbers, in %.

Please review the following examples before continuing.
Incoming: Looking for the measured Inhibition of COc1ccc(NC(=O)/C=C/c2ccccc2Cl)cc1OCCN1CCC(N(C)C)CC1 , can you help?
Outgoing: 19

Incoming: Same question for Cn1c(=O)c2nc(-c3ccc(Cl)cc3)nnc2n(CCCC#N)c1=O please.
Outgoing: 98

The following compounds each have a reported value; give each one's Inhibition.
1. O=C(O)C(F)(F)F.c1ccc(CN2CCC(NCc3ccccc3-c3ccc(CNCc4ccc5c(c4)OCO5)cc3)CC2)cc1
2. Cc1cccc2nc(-c3ccc(-c4ccc(CN5CCC(CCN6CCCCC6)CC5)cc4)cc3)[nH]c12.O=C(O)C(F)(F)F
3. CC(C)C(NC(=O)Cc1cccc2ccccc12)C(=O)Nc1cccc(C#N)c1 (centres undefined)
4. OC(CNCc1ccccc1)c1cc(OCc2ccccc2)cc(OCc2ccccc2)c1 (centres undefined)
5. Cc1ccc2nc(C)n(C3CCN(C(=O)Cc4ccccc4C)CC3)c2c1
6. Cc1[nH]c(C)c(-c2ccc(-c3ccc(F)cc3)nc2)c(=O)c1Br
7. CC(C)(C)c1ccc(C(=O)Nc2ccc3nc4c(c(N)c3c2)CCCC4)cc1.Cl

Outgoing:
1. 49
2. 100
3. 91
4. 76
5. 100
6. 96
7. 99

Take each entry in turn and give its Inhibition.
1. COc1ccc2nc(C)cc(Nc3ccc(Oc4ccc5ccccc5c4Cl)c(Cl)c3)c2c1
2. CCc1ccc(CN2CCC(CNC(=O)c3cc(-c4cccc(C(F)(F)F)c4)cs3)C2)cc1.O=C(O)C(F)(F)F (centres undefined)
3. CCCCCC(C)N/C(=N/c1cccc(Cl)c1Cl)Nc1ccc(C#N)cc1O (centres undefined)
4. CCc1cccc2sc(N3CCN(C(=O)c4ccc([N+](=O)[O-])o4)CC3)nc12
5. CC(C)COc1ccc(Cl)cc1Cc1ccc(-c2nc3cnc4ccccc4c3[nH]2)o1
6. Cl.Clc1cnc2ccc3c(c2c1CCN1CCC(NCc2cc4c(cn2)OCCO4)CC1)OCCO3
7. N#Cc1ccc(N(CCNS(=O)(=O)c2cc(Br)c(Cl)s2)Cc2ccccc2C(F)(F)F)cc1C(F)(F)F
8. COc1ccc(C(=O)Nc2ccc(-c3ccc([N+](=O)[O-])cc3)cc2)cc1CCCN(C)C.Cl

Outgoing:
[98, 48, 98, 94, 26, 18, 57, 9]

Value sought for every listed compound: Inhibition.
1. CN(C)CCOc1cc(NC(=O)Nc2ccc(-c3ccccc3)cc2)ccc1I
2. Cc1cc(NCCc2ccccc2)nc(N/C(=N/CC(=O)OC(C)(C)C)Nc2ccc(C(F)(F)F)cc2)n1.I

Outgoing:
45
97

* * *

- System: Plasmodium falciparum
- experimental protocol: GSK_TCMDC: Inhibition of Plasmodium falciparum 3D7 in whole red blood cells, using parasite LDH activity as an index of growth. Test compounds present at 2uM
- Format: functional
endpoint name: Inhibition (%)
Answers are plain numbers, in %.

Take a look at these entries with their results.
Incoming: Value wanted: Inhibition (Plasmodium falciparum) of entry O=C(Nc1ccc(C(F)(F)F)cc1)c1ccc(S(=O)(=O)NC2CCN(Cc3ccccc3)C2)cc1.O=C(O)C(F)(F)F (stereo not drawn)
Outgoing: 100

Incoming: And N#CCCN1CCN(Cc2ccc(-c3ccc(-c4nc5cc(F)ccc5[nH]4)s3)cc2)CC1.O=C(O)C(F)(F)F ?
Outgoing: 99

Incoming: Lookup O=S(=O)(c1ccccc1Cl)N1CCCCC(c2ccc(C(F)(F)F)cc2)=N1
Outgoing: 86

# return Inhibition for each item in the list
1. Fc1ccc2[nH]c(-c3cccc(-c4ccc(CN5CCN(c6ccncc6)CC5)cc4)c3)nc2c1.O=C(O)C(F)(F)F
2. O=C(Cn1c(CCc2cccc(F)c2F)nc(=O)c2ccccc21)N(CCN1CCCCC1)Cc1ccc(-c2ccc(C(F)(F)F)cc2)cc1.O=C(O)C(O)C(O)C(=O)O
3. CN(C)CCNCc1cccc(-c2ccc3c(Nc4ccc(F)cc4Cl)ccnc3c2)c1

Outgoing:
1: 100; 2: 100; 3: 100
